B1: FAM116A (parent)
chain: TVHEVDIFRCFCPVFLHSQMLWEL

- Variants of: B1
- experiment-summary: protein stability index of a GFP-peptide fusion (GPS, HEK-293T) (PSI 1-6); higher = more stable;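 note: lentivirally expressed fusions sorted by FACS into six bins by GFP to DsRed ratio, PSI derived from sequencing read proportions per bin multiplied by bin number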
- test-context: c terminus: a fixed tail appended
Rule: protein stability index of 2 or more gives 1 (yes); anything lower gives 0 (no).

Input: Threshold query (protein stability index >= 2) on TVHEVDIFRCFCPVFLHSQMLWEC
Output: 1 (yes)

Input: Threshold query (protein stability index >= 2) on TVHEVDIFRCFCPLFLHSQMLWEL
Output: 1 (yes)

Data provenance is the supplement of paper PMC10567573.
